# Lookup of reported logP keyed by entry
- measurement.protocol: logP determination by HPLC on a reversed-phase column (C 18), EEC Directive 79/831 Annex V.A8
- Format: physicochemical
- experimental.setup: value marked [a]
experimental.endpoint: logP

- compound: "COCC#Cc1cc(C)nc(C(C)=NOCC(C)CON=C(C)c2cc(C#CCOC)cc(C)n2)c1 (stereo not shown) [compound 874]"
  experimental.result: "6.76^[a]"
- compound: "CC(=NOC1CCC(ON=C(C)c2cc(C)cc(C)n2)C1)c1cc(C)cc(C)n1 (mixture of isomers) [compound 796]"
  experimental.result: "2.55^[a]"
- compound: "CCCC(=NOCCCON=C(CCC)c1ccc(C)c(C)n1)c1ccc(C)c(C)n1 (mixture of isomers) [Compound 260]"
  experimental.result: "5.22^[a]"
- compound: "C=C(CON=C(N)c1ccc(C)c(C)n1)CON=C(Cl)c1cccc(C)n1 [compound 831]"
  experimental.result: "4.06^[a]"

----------
# Lookup of reported logP keyed by entry
- measurement.protocol: logP determination by HPLC on a reversed-phase column (C 18), EEC Directive 79/831 Annex V.A8
- Type: physicochemical
- experimental.setup: method marked [c] in Table 1

- molecule: "CC(=NOCC(CON=C(C)c1nc(C)ccc1C)c1ccccc1)c1nc(C)ccc1C (single isomer, unassigned) [compound 755]"
  logP: "5.45^[c]"
- molecule: "CCC(CON=C(C)c1nc(C)ccc1C)CON=C(C)c1nc(C)ccc1C (single isomer, unassigned) [compound 751]"
  logP: "5.54^[c]"
- molecule: "CC(=NOCCCON=C(C)c1ccc(C)c(C)n1)c1cccc(C)n1"
  logP: "5.33^[c]"
- molecule: "CC(=NOCC(C)CON=C(C)c1ccc2cccc(C)c2n1)c1ccc2cccc(C)c2n1 (stereo not shown)"
  logP: "7.36^[c]"
- molecule: "CC(=NOc1ncnc(ON=C(C)c2cccc(C)n2)c1C)c1cccc(C)n1"
  logP: "3.45^[c]"
- molecule: "CC(=NOCC1(CON=C(C)c2ccc(C)c(C)n2)CC1)c1cc(C)cc(C)n1"
  logP: "6.02^[c]"
- molecule: "CCOC(CON=C(C)c1cccc(C)n1)CON=C(C)c1cccc(C)n1 (stereo not shown)"
  logP: "4.76^[c]"
- molecule: "CC(=NOCC1(CON=C(C)c2cccc(C)n2)CCCC1)c1cccc(C)n1"
  logP: "7.33^[c]"
- molecule: "CC(=NOCC(C)CON=C(C)c1ccc[nH]1)c1ccc[nH]1 (mixture of isomers)"
  logP: "3.62^[c]"
- molecule: "CC(=NOCC(CON=C(C)c1nc(C)ccc1C)C(C)C)c1nc(C)ccc1C (single isomer, unassigned) [compound 752]"
  logP: "4.85^[c]"
- molecule: "CC(=NOCC(CON=C(C)c1nc(C)ccc1C)C(C)(C)C)c1nc(C)ccc1C (single isomer, unassigned) [compound 757]"
  logP: "6.38^[c]"
- molecule: "C=C(CON=C(C)c1ccc2ccc(C)cc2n1)CON=C(C)c1ccc2ccc(C)cc2n1"
  logP: "7.36^[c]"
- molecule: "CC(=NOCCC(C)ON=C(C)c1cc(C)cc(C)n1)c1cc(C)cc(C)n1 (stereo not shown)"
  logP: "6.11^[c]"
- molecule: "CC(=NOCC(C)CON=C(C)c1cccc(-c2cccc(C)n2)n1)c1cccc(-c2cccc(C)n2)n1 (stereo not shown)"
  logP: "3.26^[c]"
- molecule: "CCC(CON=C(C)c1ccc(C)c(C)n1)CON=C(C)c1ccc(C)c(C)n1 (stereo not shown)"
  logP: "6.79^[c]"
- molecule: "CCCC(CON=C(C)c1cc(C)cc(C)n1)CON=C(C)c1cc(C)cc(C)n1 (stereo not shown)"
  logP: "7.15^[c]"
